tested_on: Recombinant human cathepsin S (CatS) (Homo sapiens, UniProt P25774)
Sequence (P25774 115-331): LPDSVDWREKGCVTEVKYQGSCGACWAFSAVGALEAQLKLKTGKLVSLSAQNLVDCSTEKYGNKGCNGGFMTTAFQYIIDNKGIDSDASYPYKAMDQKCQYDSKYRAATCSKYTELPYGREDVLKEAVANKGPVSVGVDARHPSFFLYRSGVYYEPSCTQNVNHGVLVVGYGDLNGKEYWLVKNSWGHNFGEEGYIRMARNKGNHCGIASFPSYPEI
assay_summary: Recombinant human cathepsin S (CatS) inhibition assay, fluorogenic substrate Z-Valine-Valine-Arginine-AMC
condition_description: read-out: CatS IC50; Table 4; average of results obtained
experimental_endpoint: IC50

Respond only with IC50 recorded for CC(C)(C)OC(=O)N1Cc2cc(C#Cc3cc(-c4nn(CCCN5CCOCC5)c5c4CN(S(C)(=O)=O)CC5)ccc3Cl)ccc2C[C@H]1C(=O)O 630 nM

* * *

log10 IC50 for assorted compounds
tested_on: Recombinant human cathepsin S (CatS) (Homo sapiens)
assay_summary: Recombinant human cathepsin S (CatS) inhibition assay, fluorogenic substrate Z-Valine-Valine-Arginine-AMC
Parameter value (number): base-10 log of IC50 in nM.

>  <compound>
CS(=O)(=O)N1CCc2c(c(-c3ccc(Cl)c(CCCCN4CCOCC4)c3)nn2CCCN2CCC(N3CCCC3=O)CC2)C1

>  <log10 IC50>
3.55

$$$$

Enter measured log10 IC50, system Recombinant human cathepsin S (CatS) (Homo sapiens), for the compound shown: NC(=O)N1CCc2c(c(-c3ccc(Cl)c(C#Cc4ccc(Cl)c(C(=O)NCCCO)c4)c3)nn2CCCN2CCSCC2)C1 1.30

Enter measured log10 IC50, system Recombinant human cathepsin S (CatS) (Homo sapiens), for the compound shown: CS(=O)(=O)N1CCc2c(c(-c3ccc(Cl)c(CCc4ccc(Cl)cc4)c3)nn2CCCN2CCOCC2)C1 2.36

Enter measured log10 IC50, system Recombinant human cathepsin S (CatS) (Homo sapiens), for the compound shown: CS(=O)(=O)N1CCc2c(c(-c3ccc(Cl)c(C#Cc4ccc(C(=O)NCCN5CCOCC5)cc4)c3)nn2CCCN2CCCCC2)C1 1.85

Enter measured log10 IC50, system Recombinant human cathepsin S (CatS) (Homo sapiens), for the compound shown: NCC(=O)N1CCc2c(c(-c3ccc(Cl)c(C#Cc4ccc(CNCc5ccc(Cl)cc5)cc4)c3)nn2CCCN2CCOCC2)C1 2.41

Enter measured log10 IC50, system Recombinant human cathepsin S (CatS) (Homo sapiens), for the compound shown: CC(=O)Nc1ccc(C#Cc2cc(-c3nn(CCCN4CCOCC4)c4c3CN(S(C)(=O)=O)CC4)ccc2Cl)cc1 2.40

Enter measured log10 IC50, system Recombinant human cathepsin S (CatS) (Homo sapiens), for the compound shown: CS(=O)(=O)N1CCc2c(c(-c3ccc(Cl)c(C#Cc4ccc(Cl)cc4)c3)nn2CC(O)CN2CCNCC2)C1 (stereo not shown) 2.59

* * *

IC50 for assorted compounds
tested_on: Recombinant human cathepsin S (CatS) (Homo sapiens, UniProt P25774)
assay_summary: Recombinant human cathepsin S (CatS) inhibition assay, fluorogenic substrate Z-Valine-Valine-Arginine-AMC;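 further: Baculovirus-expressed CatS in pH 5.0 sodium acetate buffer with DTT and NaCl, fluorescence read each minute over 20 min, inhibition derived from rate slope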
condition_description: CatS IC50
The answer is to be given in nM; state only the numeric part.

>  <compound>
C[C@H]1COCCN1CCCn1nc(-c2ccc(Cl)c(C#Cc3ccc(C(=O)NCCN4CCOCC4)cc3)c2)c2c1CCN(C(=O)C(N)=O)C2 [Example 169]

>  <unit_abbrev>
nM

>  <measured_number>
50

$$$$
>  <compound>
CS(=O)(=O)N1CCc2c(c(-c3ccc(Cl)c(C#Cc4ccc(CNC5CC5)cc4)c3)nn2CCCN2CCOCC2)C1 [Example 323]

>  <unit_abbrev>
nM

>  <measured_number>
750

$$$$

Please examine the following record next.
Respond only with IC50 recorded for NC(=O)C(=O)N1CCc2c(c(-c3ccc(Cl)c(C#Cc4ccc(CNCc5ccc(Cl)cc5)cc4)c3)nn2C[C@H](O)CN2CCOCC2)C1 [Example 254] 240
